Would you kindly list protein stability index for each of these variants?
B1: IKZF1 (parent)
chain: RDPFECNMCGYHSQDRYEFSSHIT

variants of: B1; test: protein stability index of a GFP-peptide fusion (GPS, HEK-293T) (PSI 1-6); higher = more stable; details: c terminus: a fixed tail appended;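 further: lentivirally expressed fusions sorted by FACS into six bins by GFP to DsRed ratio, PSI derived from sequencing read proportions per bin multiplied by bin number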
Numbers only.

Answered cases to consult:
E5W : 1.59
E5A : 2.13
D2K : 1.96

# batch size: 2; output protein stability index per entry
1. F19Q
2. E5L

result:
1: 3.14; 2: 2.08
